Where do the numbers come from? From patent US20240084039A1.

Kindly supply the reported % positives of total tested serum samples values for the records listed here.
Target: pre-existing anti-drug antibodies (ADA) present in human sera
Assay: ELISA pre-existing ADA binding assay, confirmatory setup, test molecule coated, 20 human sera
Write down the numeric answer in % and omit the unit.

The value of % positives of total tested serum samples measured for the binder PRO2920 (scFv) scFv: DIQMTQSPSSLSASVGDRVTITCQASESIYSSLAWYQQKPGKAPKLLIYLASTLASGVPSRFSGSGSGTDFTLTISSLQPEDFATYYCQSTDYTTSTHRNSFGTGTKVTVLGGGGGSGGGGSGGGGSGGGGSEVQLVESGGGRVQPGGSLRLSCAASGFSFSTTYYMCWVRQAPGKGLEWIGCTNTASSVRTYYATWAKGRFTISRDNSKNTVYLQMNSLRAEDTAVYYCARDMGFADYALNLWGQGTQVTVSS turned out to be 10

Short answer for PRO2984 (scFv) scFv: DIQMTQSPASLSASVGDRVTITCQASQSIGTYLAWYQQKPGKPPKLLIYRAFILASGVPSRFSGSGSGTDFTLTISSLQPEDFATYYCQSNFYSDSTTIGPNAFGTGTKVTVLGGGGGSGGGGSGGGGSGGGGSEVQLVESGGGSVQPGGSLRLSCAASGFSFNSDYWIYWVRQAPGKGLEWIASIYGGSSGNTQYASWAQGRFTISRDNSKNTVYLQMNSLRAEDTATYFCARGYVDYGGATDLWGQGTTVTVSS : % positives of total tested serum samples was 25

Entry PRO2909 (scFv) scFv: DIQMTQSPASLSASVGDRVTITCQASQSIGTYLAWYQQKPGKPPKLLIYRAFILASGVPSRFSGSGSGTDFTLTISSLQPEDFATYYCQSNFYSDSTTIGPNAFGTGTKVTVLGGGGGSGGGGSGGGGSGGGGSEVQLVESGGGLVQPGGSLRLSCAASGFSFNSDYWIYWVRQAPGKGLEWIASIYGGSSGNTQYASWAQGRFTISRDNSKNTVYLQMNSLRAEDTAVYFCARGYVDYGGATDLWGQGTQVTVSS , % positives of total tested serum samples reported as 50
